- Test system: NCI-H322M multicellular tumor spheroids, viability (% test/control)
- ASSAY EXPLANATION: Anticancer human tumor NCI-H322M cell line growth inhibition;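 further: spheroids exposed to compound for seven days before readout; 100% = DMSO vehicle control wells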
- CONDITION DESCRIPTION: second compound 3.16 µM; first compound 3 µM; stronger effect = lower value
- Protocol: Multicellular complex tumor spheroid response to DNA repair inhibitors in combination with DNA-damaging drugs This study explores the anticancer activities of DNA-damaging drugs and inhibitors of DNA damage repair, both as single agents and in combinations. […] Twenty-six patient-derived or established malignant cell lines were evaluated representing sarcoma, melanoma, small cell lung cancer (SCLC), non-small cell lung cancer (NSCLC), as well as bladder, ovarian and pancreatic cancers. […]
Kindly supply the reported viability, T/C values for the records listed here.
One number for each entry, in %.

[[record]]
molecule = "O=C(c1cc(Cc2n[nH]c(=O)c3ccccc23)ccc1F)N1CCN(C(=O)C2CC2)CC1 + Cn1nnc2c(C(N)=O)ncn2c1=O"
value_kind = "viability, T/C"
numeric_result = 79.9


Respectfully, I request viability, T/C for each entry included below.
1. Cn1ncnc1[C@H]1c2n[nH]c(=O)c3cc(F)cc(c23)N[C@@H]1c1ccc(F)cc1 + Cn1nnc2c(C(N)=O)ncn2c1=O
2. CNCc1ccc(-c2cc(-c3nc(-c4ccc(S(=O)(=O)C(C)C)cc4)cnc3N)on2)cc1 + Cn1nnc2c(C(N)=O)ncn2c1=O
3. Cc1sc2c(c1C)C(c1ccc(Cl)cc1)=NC(CC(=O)Nc1ccc(O)cc1)c1nnc(C)n1-2 (centres undefined) + Cn1nnc2c(C(N)=O)ncn2c1=O

Response given:
1: 67.8; 2: 87.6; 3: 73.5

Where do the numbers come from? From PubChem BioAssay AID1845211.
